Field: Kd. Provide a value for each of the binders that follow.
- System name: T1, human ActRIIB (human, UniProt Q13705 19-137, limits assumed);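 further: solution equilibrium titration: antibodies held at fixed concentration, equilibrated overnight at 4 °C with serially diluted ActR2A or ActR2B, unbound antibody captured on antigen-coated plate, electrochemiluminescence readout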
- T1 construct: antigen in MSD-SET; also called ACVR2B; ActR2B
- T1 sequence: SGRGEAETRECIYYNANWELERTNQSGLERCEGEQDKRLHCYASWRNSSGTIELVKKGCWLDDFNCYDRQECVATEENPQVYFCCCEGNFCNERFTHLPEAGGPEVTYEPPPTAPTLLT
- Test: MSD-SET

So what does the record say about Kd for Antibody Ochsauga (antibody, V domains shown, full-length IgG) VH: QVQLVQSGAEVKKPGASVKVSCKASGYTFTSSYINWVRQAPGQGLEWMGTINAVSGSTSYAQKFQGRVTMTRDTSISTAYMELSRLRSDDTAVYYCARGGWFDVWGQGTLVTVSS VL: QSALTQPASVSGSPGQSITISCTGTSSDIGSYNYVNWYQQHPGKAPKLMIYGVSKRESGVSNRFSGSKSGNTASLTISGLQAEDEADYYCGTFAGGSYYGVFGGGTKLTVL ?
0.006 nM

Record: Antibody Ochsamaulsalat (antibody, V domains shown, full-length IgG) VH: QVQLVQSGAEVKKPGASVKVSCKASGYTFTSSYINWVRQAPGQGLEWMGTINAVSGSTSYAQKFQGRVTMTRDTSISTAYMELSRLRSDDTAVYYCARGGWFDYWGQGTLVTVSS VL: QSALTQPASVSGSPGQSITISCTGTSSDVGSRNYVNWYQQHPGKAPKLMIYGVSKRESGVSNRFSGSKSGNTASLTISGLQAEDEADYYCGTFAGGDYYGVFGGGTKLTVL
0.01 nM

Record: Antibody Floischbrühsupp (antibody, V domains shown, full-length IgG) VH: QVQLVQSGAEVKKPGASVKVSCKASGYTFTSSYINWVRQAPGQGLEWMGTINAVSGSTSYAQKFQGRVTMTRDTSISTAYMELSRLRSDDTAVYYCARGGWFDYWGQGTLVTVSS VL: QSALTQPASVSGSPGQSITISCTGTSSDVGSFNYVNWYQQHPGKAPKLMIKGVSKRESGVSNRFSGSKSGNTASLTISGLQAEDEADYYCGTFAGGAYYGVFGGGTKLTVL
0.01 nM
